These entries and their values trace back to patent US9353090B2.

- assayedTarget: human soluble guanylate cyclase alpha 1 and beta 1 subunits (sGC) (Homo sapiens (Human), UniProt Q02108+Q02153)
- Sequence (Q02108 whole entry partner): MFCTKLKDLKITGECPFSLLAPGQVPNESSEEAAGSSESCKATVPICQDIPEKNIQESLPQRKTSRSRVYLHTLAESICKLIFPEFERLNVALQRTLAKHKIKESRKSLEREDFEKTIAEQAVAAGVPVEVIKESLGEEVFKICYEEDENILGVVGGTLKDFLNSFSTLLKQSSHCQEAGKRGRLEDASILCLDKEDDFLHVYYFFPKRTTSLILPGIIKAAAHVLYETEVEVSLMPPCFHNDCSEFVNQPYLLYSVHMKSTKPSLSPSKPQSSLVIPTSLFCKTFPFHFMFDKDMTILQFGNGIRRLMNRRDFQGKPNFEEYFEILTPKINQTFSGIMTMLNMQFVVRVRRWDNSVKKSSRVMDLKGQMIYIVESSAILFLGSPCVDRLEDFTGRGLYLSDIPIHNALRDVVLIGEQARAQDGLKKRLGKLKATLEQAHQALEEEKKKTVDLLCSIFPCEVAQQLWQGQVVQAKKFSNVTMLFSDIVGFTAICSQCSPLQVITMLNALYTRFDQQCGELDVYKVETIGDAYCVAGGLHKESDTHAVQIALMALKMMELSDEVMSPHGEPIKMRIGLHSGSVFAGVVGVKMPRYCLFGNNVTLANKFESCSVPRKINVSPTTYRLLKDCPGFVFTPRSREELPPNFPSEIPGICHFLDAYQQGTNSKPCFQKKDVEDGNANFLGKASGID
- Sequence (Q02153 whole entry): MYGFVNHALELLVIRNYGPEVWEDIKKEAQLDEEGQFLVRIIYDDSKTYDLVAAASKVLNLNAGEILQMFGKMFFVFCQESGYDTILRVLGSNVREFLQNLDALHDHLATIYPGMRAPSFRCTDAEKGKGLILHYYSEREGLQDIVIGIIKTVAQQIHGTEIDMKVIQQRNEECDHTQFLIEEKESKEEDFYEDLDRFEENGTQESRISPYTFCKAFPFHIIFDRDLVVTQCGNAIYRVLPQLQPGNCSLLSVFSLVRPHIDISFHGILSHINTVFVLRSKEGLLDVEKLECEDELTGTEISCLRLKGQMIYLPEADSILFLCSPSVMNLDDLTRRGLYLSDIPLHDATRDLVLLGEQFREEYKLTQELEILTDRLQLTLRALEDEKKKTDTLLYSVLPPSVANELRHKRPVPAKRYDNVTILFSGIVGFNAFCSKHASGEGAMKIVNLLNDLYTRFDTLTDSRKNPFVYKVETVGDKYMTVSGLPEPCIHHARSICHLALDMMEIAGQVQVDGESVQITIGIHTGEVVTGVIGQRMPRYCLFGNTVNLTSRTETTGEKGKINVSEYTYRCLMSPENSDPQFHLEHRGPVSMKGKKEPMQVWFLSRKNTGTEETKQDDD
- assayComment: sGC cellular activator assay (cGMP, HTRF), in the presence and absence of 50% human serum
- experimentalContext: CHO cells stably expressing human sGC alpha 1/beta 1, preincubated with 40 microM ODQ; cGMP by HTRF; Table 2 does not state whether with or without 50% human serum
pEC50: −log10 of the molar value.
reportedMetric: pEC50

{"columns": ["compound", "reportedMetric", "measuredNumber"],
 "data": [
  ["COC[C@H]1N(c2cccc(-c3cccc(C)c3OCc3cc4c(c(OC)c3)CN(C3CCOCC3)CC4)n2)C[C@@H]2C[C@@]21C(=O)O [Compound 57]", "pEC50", 7.68],
  ["CO[C@H]1CN(c2cccc(-c3cccc(C)c3OCc3cc(F)c4c(c3)CCN(C3COC3)CC4)n2)CC[C@H]1C(=O)O [Compound 274]", "pEC50", 8.40],
  ["COc1cc(COc2c(Cl)cccc2-c2csc(N3CC[C@@H](C(=O)O)[C@@H](OC)C3)n2)cc2c1CN(C1CCOCC1)CC2 [Compound 264]", "pEC50", 8.40]
]}

* * *

// values below are reported solubility at 24 h
- assayComment: physchem
- experimentalContext: pH 6.8, aqueous buffer, kinetic from dmso stock, Solubility (pH 6.8)
reportedMetric: solubility at 24 h (µg/mL)

{"columns": ["compound", "measuredNumber"],
 "data": [
  ["Cc1cc(COc2c(C)cccc2-c2ccnc(N3C[C@@H]4C[C@]4(C(=O)O)C3)n2)cc2c1CN(C1CCOCC1)CC2", 74],
  ["Cc1cccc(-c2csc(N3CC[C@@]4(C(=O)O)C[C@H]4C3)n2)c1OCc1ccc2c(c1C)CCN(CC1COCCO1)C2 (stereo partly drawn)", 57],
  ["COC[C@H]1N(c2cccc(-c3cccc(C)c3OCc3cc(C)c4c(c3)CCN(C3CCOC3)C4)n2)C[C@@H]2C[C@@]21C(=O)O (single isomer, unassigned) [Compound 51]", 74]
]}

* * *

- assayComment: physchem
- experimentalContext: pH 4.5, aqueous buffer, kinetic from dmso stock, Solubility (pH 4.5)
reportedMetric: solubility at 24 h (µg/mL)

{"columns": ["compound", "measuredNumber"],
 "data": [
  ["CCO[C@H]1CN(c2nc(-c3cccc(Cl)c3OCc3cc4c(c(OC)c3)CN(C3CCOCC3)CC4)cs2)CC[C@H]1C(=O)O [Compound 261]", 40.7],
  ["Cc1ccc(OCc2ccc3c(c2C)CCN(CC2COCCO2)CC3)c(-c2csc(N3CC[C@@]4(C(=O)O)C[C@H]4C3)n2)c1 (stereo partly drawn) [Compound 132]", 23],
  ["CO[C@@H]1CN(c2cccc(-c3cccc(C)c3OCc3ccc4c(c3C)CN(C3CCOCC3)C4)n2)CC[C@@H]1C(=O)O [Compound 307]", 101],
  ["Cc1c(COc2ccccc2-c2cccc(N3CC[C@@]4(C(=O)O)C[C@H]4C3)n2)ccc2c1CCN(C[C@@H]1COCCO1)C2 [Compound 10]", 110],
  ["CO[C@H]1CN(c2nc(-c3cccc(C)c3OCc3ccc4c(c3C)CCN(C3CCOCC3)CC4)cs2)CC[C@H]1C(=O)O [Compound 288]", 75.5],
  ["COC[C@H]1N(c2cccc(-c3cccc(C)c3OCc3cc(C)c4c(c3)CCN(C3CCOC3)C4)n2)C[C@@H]2C[C@@]21C(=O)O (single isomer, unassigned) [Compound 51]", 94]
]}
